All figures here come from patent US20150119341A1.

- assay-target: T1, recombinant human melanocortin-1 receptor (hMCR-1a) in membrane homogenates of HEK-293 cells (human, UniProt Q01726 1-317)
- T1 construct: whole, on cells; Used as membrane homogenates, not intact cells; also called hMCR-la; MC-1
- T1 sequence (Q01726 whole entry): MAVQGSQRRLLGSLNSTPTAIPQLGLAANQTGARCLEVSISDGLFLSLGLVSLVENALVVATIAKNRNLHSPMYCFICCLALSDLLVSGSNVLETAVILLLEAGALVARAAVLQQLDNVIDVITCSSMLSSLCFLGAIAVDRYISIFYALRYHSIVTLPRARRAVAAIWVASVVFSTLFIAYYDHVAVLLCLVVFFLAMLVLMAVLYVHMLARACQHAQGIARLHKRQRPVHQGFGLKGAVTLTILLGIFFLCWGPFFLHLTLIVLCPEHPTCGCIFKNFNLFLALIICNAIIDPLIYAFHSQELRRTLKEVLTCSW
- assay: competitive inhibition of [I125]-NDP-alpha-MSH, hMCR-1 HEK-293 membranes
[ ]: non-standard residue; d: D form. Nle = CCCC[C@H](N)C(=O)O
endpoint-label: Ki (µM)
The answer is to be given in µM; state only the numeric part.

Which Ki is listed for Ac-[Nle]AH[dF]RAW-NH2 (SMILES CCCC[C@H](NC(C)=O)C(=O)N[C@@H](C)C(=O)N[C@@H](Cc1c[nH]cn1)C(=O)N[C@H](Cc1ccccc1)C(=O)N[C@@H](CCCNC(=N)N)C(=O)N[C@@H](C)C(=O)N[C@@H](Cc1c[nH]c2ccccc12)C(N)=O, synthetic linear peptide) [Ac-Nle-Ala-His-D-Phe-Arg-Ala-Trp-NH2] ?
0.0002

// returns reported Ki for input Ac-[Nle]HFRAW-NH2 (SMILES CCCC[C@H](NC(C)=O)C(=O)N[C@@H](Cc1c[nH]cn1)C(=O)N[C@@H](Cc1ccccc1)C(=O)N[C@@H](CCCNC(=N)N)C(=O)N[C@@H](C)C(=O)N[C@@H](Cc1c[nH]c2ccccc12)C(N)=O, synthetic linear peptide) [Ac-Nle-His-Phe-Arg-Ala-Trp-NH2]
5.92

Record request: Ki value, item Ac-[Nle]AH[dF]AAW-NH2 (SMILES CCCC[C@H](NC(C)=O)C(=O)N[C@@H](C)C(=O)N[C@@H](Cc1c[nH]cn1)C(=O)N[C@H](Cc1ccccc1)C(=O)N[C@@H](C)C(=O)N[C@@H](C)C(=O)N[C@@H](Cc1c[nH]c2ccccc12)C(N)=O, synthetic linear peptide) [Ac-Nle-Ala-His-D-Phe-Ala-Ala-Trp-NH2]
0.043
